system: Non-cancer cells (CK8/18-) of patient-derived NSCLC cultures; experiment: Cytotoxicity in patient-derived NSCLC cultures, non-cancer cells; format: cell-based, human; conditions: Homo sapiens, 168 h, culture TR65, non-cancer cells (CK8/18-), 7 days treatment
pIC50: −log10 of the molar value.
reportedEndpoint: pIC50

• CCC1=C[C@@H]2CN(C1)Cc1c([nH]c3ccccc13)[C@@](C(=O)OC)(c1cc3c(cc1OC)N(C)[C@H]1[C@@](O)(C(=O)OC)[C@H](OC(C)=O)[C@]4(CC)C=CCN5CC[C@]31[C@@H]54)C2 = 7.48
• CC(=O)O[C@@]12CO[C@@H]1C[C@H](O)[C@@]1(C)C(=O)[C@H](O)C3=C(C)[C@@H](OC(=O)[C@H](O)[C@@H](NC(=O)OC(C)(C)C)c4ccccc4)C[C@@](O)([C@@H](OC(=O)c4ccccc4)[C@H]21)C3(C)C = 6.34
• COc1cc([C@@H]2c3cc4c(cc3[C@@H](O[C@@H]3O[C@@H]5CO[C@@H](C)O[C@H]5[C@H](O)[C@H]3O)[C@H]3COC(=O)[C@H]23)OCO4)cc(OC)c1O [Etoposide, etoposide] = 5.68
• CC(=O)O[C@H]1C(=O)[C@@]2(C)[C@H]([C@H](OC(=O)c3ccccc3)[C@]3(O)C[C@H](OC(=O)[C@H](O)[C@@H](NC(=O)c4ccccc4)c4ccccc4)C(C)=C1C3(C)C)[C@]1(OC(C)=O)CO[C@@H]1C[C@@H]2O = 5.85
• Nc1nc2[nH]cc(CCc3ccc(C(=O)N[C@@H](CCC(=O)O)C(=O)O)cc3)c2c(=O)[nH]1 = 4.60
• Nc1ccn([C@@H]2O[C@H](CO)[C@@H](O)C2(F)F)c(=O)n1 = 6.45

This collection of values is drawn from paper PMC10743086.
